tgt: cephalosporinase (Pseudomonas aeruginosa, UniProt P24735)
Construct: nitrocefin spectrophotometric assay
Sequence (P24735 27-397): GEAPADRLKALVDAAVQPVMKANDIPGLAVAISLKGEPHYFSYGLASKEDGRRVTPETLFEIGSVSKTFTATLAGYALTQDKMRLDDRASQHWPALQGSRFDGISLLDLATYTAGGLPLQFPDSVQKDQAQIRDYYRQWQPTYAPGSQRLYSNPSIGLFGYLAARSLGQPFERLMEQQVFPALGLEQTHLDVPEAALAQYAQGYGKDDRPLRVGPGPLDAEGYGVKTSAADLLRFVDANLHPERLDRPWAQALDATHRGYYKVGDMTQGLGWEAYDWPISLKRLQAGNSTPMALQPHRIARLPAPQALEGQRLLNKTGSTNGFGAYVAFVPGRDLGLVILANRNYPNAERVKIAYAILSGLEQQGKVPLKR
method-notes: β-lactamase inhibitory activity, spectrophotometric rate assay with nitrocefin
condition-set: cephalosporinase isolated from P. aeruginoase 46012; nitrocefin substrate; read-out: 50% Inhibitory conc. Cephalosporinase
pIC50: −log10 of the molar value.
pIC50 values by entry

| compound | pIC50 |
| --- | --- |
| C[C@]1(C=NO)[C@H](C(=O)O)N2C(=O)C[C@H]2S1(=O)=O [Compound 5] | 5.15 |
| CC(=O)NN=C[C@@]1(C)[C@H](C(=O)O)N2C(=O)C[C@H]2S1(=O)=O [Compound 38] | 6.22 |
| CCON=C[C@@]1(C)[C@H](C(=O)O)N2C(=O)C[C@H]2S1(=O)=O [Compound 10] | 6.00 |
| CON=C[C@@]1(C)[C@H](C(=O)O)N2C(=O)C[C@H]2S1(=O)=O [Compound 3] | 5.72 |
| CCCON=C[C@@]1(C)[C@H](C(=O)O)N2C(=O)C[C@H]2S1(=O)=O [Compound 8] | 6.00 |
| C[C@]1(C=NOCC(=O)O)[C@H](C(=O)O)N2C(=O)C[C@H]2S1(=O)=O [Compound 28] | 6.00 |

---

tgt: TEM-1 (Escherichia coli, UniProt P62593)
Construct: TEM-1 (isolated from E. coli); endogenous in cells
Sequence (P62593 24-286 limits assumed): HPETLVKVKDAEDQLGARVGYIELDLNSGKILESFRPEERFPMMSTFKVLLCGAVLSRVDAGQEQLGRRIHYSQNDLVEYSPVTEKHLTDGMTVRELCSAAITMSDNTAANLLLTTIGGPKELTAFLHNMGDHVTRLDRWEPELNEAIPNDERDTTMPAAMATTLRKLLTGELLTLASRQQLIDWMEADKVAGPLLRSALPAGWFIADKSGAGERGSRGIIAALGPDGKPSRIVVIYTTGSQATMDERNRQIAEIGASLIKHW
method-notes: β-lactamase inhibitory activity, spectrophotometric rate assay with nitrocefin
condition-set: TEM-1 isolated from E. coli; nitrocefin substrate; read-out: 50% Inhibitory conc. TEM-1
log10 of IC50 values by entry
measured-endpoint: log10 of IC50 (log10 of the value in nM)

| chemical-string | log10 of IC50 |
| --- | --- |
| C[C@]1(C=NO)[C@H](C(=O)O)N2C(=O)C[C@H]2S1(=O)=O | 2.76 |
| CCCON=C[C@@]1(C)[C@H](C(=O)O)N2C(=O)C[C@H]2S1(=O)=O | 2.00 |
| CC(=O)NN=C[C@@]1(C)[C@H](C(=O)O)N2C(=O)C[C@H]2S1(=O)=O | 0.15 |
| C[C@]1(C=NOCC(=O)O)[C@H](C(=O)O)N2C(=O)C[C@H]2S1(=O)=O | 0.68 |
| CON=C[C@@]1(C)[C@H](C(=O)O)N2C(=O)C[C@H]2S1(=O)=O | 2.48 |
| CCON=C[C@@]1(C)[C@H](C(=O)O)N2C(=O)C[C@H]2S1(=O)=O | 2.70 |
